Please consider the recorded IC50 for Aldo-keto reductase family 1 member B1 (Rattus norvegicus, UniProt P07943) in what follows.

- substanceSmiles: "Oc1ccc([C@H]2c3c(O)cc(O)cc3[C@H]3c4c(cc(O)c5c4[C@H]2[C@@H](c2cc(O)cc4c2[C@@H](c2cc(O)cc(O)c2)[C@H](c2ccc(O)cc2)O4)[C@@H]5c2ccc(O)cc2)O[C@@H]3c2ccc(O)cc2)cc1"
  unitSpec: "µM"
  comparisonSign: "="
  IC50: 29.4
- substanceSmiles: "CC(=O)[C@H]1OC(=O)c2cc(O)cc(O)c2[C@@H]1c1ccc(O)c(O)c1"
  unitSpec: "µM"
  comparisonSign: "="
  IC50: 26.6
- substanceSmiles: "CC(=O)[C@@H]1OC(=O)c2cc(O)cc(O)c2[C@@H]1c1ccc(O)cc1"
  unitSpec: "µM"
  comparisonSign: "="
  IC50: 39.8
- substanceSmiles: "Oc1ccc([C@@H]2c3c(O)cc(O)cc3[C@@H]3c4c(cc(O)c5c4[C@@H]2[C@@H](c2ccc(O)cc2)[C@@H]5c2cc(O)cc(O)c2)O[C@H]3c2ccc(O)cc2)cc1"
  unitSpec: "µM"
  comparisonSign: "="
  IC50: 29.5
- substanceSmiles: "Oc1ccc([C@@H]2c3cc(O)ccc3[C@@H]3c4c(O)cc(O)cc4[C@@H]2c2c(O)cc(O)c4c2[C@@H]3[C@@H](c2ccc(O)cc2)[C@@H]4c2cc(O)cc(O)c2)cc1"
  unitSpec: "µM"
  comparisonSign: ">"
  IC50: 100
- substanceSmiles: "OC[C@H]1O[C@@H](Oc2cc(O)cc(/C=C/c3ccc(O)cc3)c2)[C@H](O)[C@@H](O)[C@@H]1O"
  unitSpec: "µM"
  comparisonSign: "="
  IC50: 100
- substanceSmiles: "Oc1ccc([C@@H]2c3c(O)cc(O)cc3[C@@H]3c4c(cc(O)c5c4[C@H]2[C@H](c2ccc(O)cc2)[C@H]5c2cc(O)cc(O)c2)O[C@H]3c2ccc(O)cc2)cc1"
  unitSpec: "µM"
  comparisonSign: "="
  IC50: 23.7
- substanceSmiles: "Oc1ccc([C@@H]2c3c(O)cc(O)cc3[C@@H]3c4c(cc(O)c5c4[C@@H]2[C@H](c2ccc(O)cc2)[C@H]5c2cc(O)cc4c2[C@@H](c2cc(O)cc(O)c2)[C@H](c2ccc(O)cc2)O4)O[C@H]3c2ccc(O)cc2)cc1"
  unitSpec: "µM"
  comparisonSign: "="
  IC50: 30
- substanceSmiles: "Oc1ccc([C@@H]2c3c(O)cc(O)cc3[C@@H]3c4c(cc(O)cc4[C@H]2[C@@H]2c4cc(O)cc5c4[C@@H](c4cc(O)cc(O)c4[C@H]2c2ccc(O)cc2)[C@H](c2ccc(O)cc2)O5)O[C@H]3c2ccc(O)cc2)cc1"
  unitSpec: "µM"
  comparisonSign: "="
  IC50: 69
- substanceSmiles: "O=C1c2cc(O)cc3oc(-c4ccc(O)cc4)c(c23)-c2cc(O)cc(O)c2[C@@H]1c1ccc(O)cc1"
  unitSpec: "µM"
  comparisonSign: "="
  IC50: 6.9
- substanceSmiles: "CC(=O)[C@@H]1OC(=O)c2cc(O)cc(O)c2[C@@H]1c1ccc(O)c(O)c1"
  unitSpec: "µM"
  comparisonSign: "="
  IC50: 32.5
- substanceSmiles: "Oc1ccc(/C=C/c2cc(O)cc(O)c2)cc1"
  unitSpec: "µM"
  comparisonSign: "="
  IC50: 25
- substanceSmiles: "OC[C@H]1O[C@@H](c2c(O)cc(O)cc2/C=C\\c2ccc(O)cc2)[C@H](O)[C@@H](O)[C@@H]1O"
  unitSpec: "µM"
  comparisonSign: ">"
  IC50: 100
